Cited source for all entries: ChEMBL document CHEMBL5338817

# system_name: CREB-binding protein (Homo sapiens)
# Sequence (Q92793 2-2442 limits assumed): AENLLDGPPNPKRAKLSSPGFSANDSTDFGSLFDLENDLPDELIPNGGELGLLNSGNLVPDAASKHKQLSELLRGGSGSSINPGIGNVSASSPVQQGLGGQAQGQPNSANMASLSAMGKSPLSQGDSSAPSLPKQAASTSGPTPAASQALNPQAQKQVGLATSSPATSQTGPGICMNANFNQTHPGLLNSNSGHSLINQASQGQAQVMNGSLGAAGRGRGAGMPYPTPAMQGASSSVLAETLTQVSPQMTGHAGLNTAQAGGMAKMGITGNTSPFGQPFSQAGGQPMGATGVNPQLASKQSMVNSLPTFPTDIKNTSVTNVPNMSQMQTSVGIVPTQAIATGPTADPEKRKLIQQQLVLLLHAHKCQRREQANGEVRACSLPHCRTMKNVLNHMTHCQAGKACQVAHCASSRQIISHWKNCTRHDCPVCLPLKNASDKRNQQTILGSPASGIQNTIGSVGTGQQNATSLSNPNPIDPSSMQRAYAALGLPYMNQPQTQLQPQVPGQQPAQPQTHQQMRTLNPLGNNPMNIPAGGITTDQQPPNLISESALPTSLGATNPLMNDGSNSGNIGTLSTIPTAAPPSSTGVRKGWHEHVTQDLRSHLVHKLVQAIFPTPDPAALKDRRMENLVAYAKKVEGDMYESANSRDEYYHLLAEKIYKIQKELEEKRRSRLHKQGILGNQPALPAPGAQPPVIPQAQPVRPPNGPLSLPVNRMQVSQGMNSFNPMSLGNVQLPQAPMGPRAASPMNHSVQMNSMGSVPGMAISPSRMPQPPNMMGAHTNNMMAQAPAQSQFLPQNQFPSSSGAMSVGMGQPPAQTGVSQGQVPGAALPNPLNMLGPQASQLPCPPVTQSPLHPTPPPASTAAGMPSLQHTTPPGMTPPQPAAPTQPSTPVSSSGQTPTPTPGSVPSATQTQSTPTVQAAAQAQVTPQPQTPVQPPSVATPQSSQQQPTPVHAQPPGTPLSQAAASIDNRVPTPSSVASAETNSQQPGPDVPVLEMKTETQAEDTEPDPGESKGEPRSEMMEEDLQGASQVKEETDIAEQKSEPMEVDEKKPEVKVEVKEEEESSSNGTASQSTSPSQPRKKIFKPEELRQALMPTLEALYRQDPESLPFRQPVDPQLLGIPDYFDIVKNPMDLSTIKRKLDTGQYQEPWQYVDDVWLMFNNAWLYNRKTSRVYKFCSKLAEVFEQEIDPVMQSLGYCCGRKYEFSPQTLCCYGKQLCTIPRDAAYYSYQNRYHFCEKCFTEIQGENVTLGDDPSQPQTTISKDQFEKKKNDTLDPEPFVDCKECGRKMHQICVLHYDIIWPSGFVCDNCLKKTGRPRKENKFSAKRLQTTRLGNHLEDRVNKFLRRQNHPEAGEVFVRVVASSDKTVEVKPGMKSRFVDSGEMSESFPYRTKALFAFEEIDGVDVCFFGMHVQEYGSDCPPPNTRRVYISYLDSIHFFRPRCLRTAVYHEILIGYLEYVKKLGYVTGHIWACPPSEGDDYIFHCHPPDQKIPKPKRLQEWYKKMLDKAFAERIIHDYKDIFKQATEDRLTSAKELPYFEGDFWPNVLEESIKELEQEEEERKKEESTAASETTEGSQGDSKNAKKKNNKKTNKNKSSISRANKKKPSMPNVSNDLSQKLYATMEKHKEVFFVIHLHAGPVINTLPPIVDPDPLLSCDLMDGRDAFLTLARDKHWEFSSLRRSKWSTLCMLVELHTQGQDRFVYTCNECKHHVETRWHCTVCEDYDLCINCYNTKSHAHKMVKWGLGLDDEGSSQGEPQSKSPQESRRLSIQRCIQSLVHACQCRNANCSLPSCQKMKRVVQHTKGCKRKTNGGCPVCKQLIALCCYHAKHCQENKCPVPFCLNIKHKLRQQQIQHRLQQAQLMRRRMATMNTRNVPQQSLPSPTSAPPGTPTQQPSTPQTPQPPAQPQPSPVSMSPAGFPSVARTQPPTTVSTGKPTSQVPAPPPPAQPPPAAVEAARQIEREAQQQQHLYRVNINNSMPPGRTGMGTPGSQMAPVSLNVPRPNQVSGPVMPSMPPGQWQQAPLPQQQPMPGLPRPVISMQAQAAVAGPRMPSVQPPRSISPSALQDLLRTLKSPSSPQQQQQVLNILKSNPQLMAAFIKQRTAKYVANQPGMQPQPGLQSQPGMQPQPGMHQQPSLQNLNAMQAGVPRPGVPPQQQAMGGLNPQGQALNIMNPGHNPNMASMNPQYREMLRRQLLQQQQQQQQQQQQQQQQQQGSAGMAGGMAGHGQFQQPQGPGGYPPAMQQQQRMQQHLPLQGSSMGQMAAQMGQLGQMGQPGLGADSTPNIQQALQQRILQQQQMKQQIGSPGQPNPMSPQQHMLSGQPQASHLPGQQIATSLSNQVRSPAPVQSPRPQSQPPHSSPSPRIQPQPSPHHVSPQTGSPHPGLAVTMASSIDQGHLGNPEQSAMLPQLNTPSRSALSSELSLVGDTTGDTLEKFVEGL
# assay_procedure: Induction of CBP degradation in human RS4-11 cells assessed as maximal degradation incubated for 4 hrs by Western blot assay
# Type: cell-based
quantity_measured: Emax (%)
Please state the figure in %; there is no need to write the unit.

# input Entry CC(=O)N1CCc2c(c(-c3cccc4cc(-c5ccc(C(=O)NCCCNc6cccc7c6C(=O)N(C6CCC(=O)NC6=O)C7=O)nc5)ncc34)nn2C2CCOCC2)C1 (stereo unspecified) : reported Emax = ?
# output 71

# input What Emax value was documented for this molecule, CC(=O)N1CCc2c(c(-c3cccc4cc(-c5ccc(C(=O)NCCCNc6cccc7c6CN(C6CCC(=O)NC6=O)C7=O)nc5)ncc34)nn2C2CCOCC2)C1 (stereo unspecified) ?
# output 98

# input Please report the recorded Emax for CC(=O)N1CCc2c(c(-c3cccc4cc(-c5ccc(C(=O)N6CC7(CC(Nc8cccc9c8C(=O)N(C8CCC(=O)NC8=O)C9=O)C7)C6)nc5)ncc34)nn2C2CCOCC2)C1 (stereo unspecified) .
# output 99

# input May I ask what Emax has been recorded for CC(=O)N1CCc2c(c(-c3cccc4cc(-c5ccc(C(=O)NCCCNc6ccc7c(c6)CN(C6CCC(=O)NC6=O)C7=O)nc5)ncc34)nn2C2CCOCC2)C1 (stereo unspecified) ?
# output 99

# input Requested read-out: Emax. Entry: CC(=O)N1CCc2c(c(-c3cccc4cc(-c5ccc(C(=O)NCCCCNc6cccc7c6C(=O)N(C6CCC(=O)NC6=O)C7=O)nc5)ncc34)nn2C2CCOCC2)C1 (stereo unspecified)
# output 70

# input Give the measured Emax of CC(=O)N1CCc2c(c(-c3cccc4cc(-c5ccc(C(=O)N6CC7(CCC(Nc8cccc9c8C(=O)N(C8CCC(=O)NC8=O)C9=O)CC7)C6)nc5)ncc34)nn2C2CCOCC2)C1 (stereo unspecified) .
# output 81
